Where do these numbers come from? They come from patent US7285621B2.

# Tested on: HIV-1NL4-3
# protocol.notes: HIV-1NL4-3 infection of C8166 cells (syncytia formation, p24 ELISA)
# Type: cell-based
# Parameters: key: ++: number of syncytia present in the well were similar to that in control untreated well (35 to 40 syncitia per well); −: total absence of syncitia in the well; ±: presence of 1 to 3 syncitia in the well
# condition.parameters: peptide 10 μm, C8166 cells
parameter.measured: Syncytium formation

[
  {
    "substance": "(RQGYSPL)2-K-βA [Peptide 11]",
    "result": "−"
  },
  {
    "substance": "(QGYSPL)2-K-βA [Peptide 5]",
    "result": "−"
  },
  {
    "substance": "(RQGYSP)2-K-βA [Peptide 1]",
    "result": "−"
  }
]

---

# System: HIV-1NL4-3
# protocol.notes: HIV-1NL4-3 infection of C8166 cells (syncytia formation, p24 ELISA)
# Type: cell-based
# Parameters: key: ++: number of syncytia present in the well were similar to that in control untreated well (35 to 40 syncitia per well); −: total absence of syncitia in the well; ±: presence of 1 to 3 syncitia in the well
# condition.parameters: peptide 1 μm, C8166 cells
parameter.measured: Syncytium formation

[
  {
    "substance": "(RQGYSPL)2-K-βA [Peptide 11]",
    "result": "−"
  }
]
